This listing pairs compounds with measured IC50.
- TEST SYSTEM: IDH1-R132H (Homo sapiens, UniProt O75874, R132H)
- Sequence (O75874 whole entry R132H): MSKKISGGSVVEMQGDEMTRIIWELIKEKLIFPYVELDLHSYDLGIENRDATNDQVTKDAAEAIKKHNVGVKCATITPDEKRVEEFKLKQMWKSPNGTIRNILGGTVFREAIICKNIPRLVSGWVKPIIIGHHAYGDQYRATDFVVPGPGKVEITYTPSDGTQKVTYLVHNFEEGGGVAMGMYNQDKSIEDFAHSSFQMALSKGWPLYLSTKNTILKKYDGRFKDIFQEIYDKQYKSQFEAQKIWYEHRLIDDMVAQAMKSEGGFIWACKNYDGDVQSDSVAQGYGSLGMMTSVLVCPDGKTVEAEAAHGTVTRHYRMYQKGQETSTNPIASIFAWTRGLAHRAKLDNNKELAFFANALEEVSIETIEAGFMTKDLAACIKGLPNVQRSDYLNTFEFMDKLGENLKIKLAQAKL
- PROTOCOL: Fluorescent determination of IDH1-R132H cell activity (2-HG in U87MGR132H cells)
- EXPERIMENTAL SETUP: 2-HG inhibition in U87MGR132H cells transfected with IDH1-R132H mutant plasmid
Hi! Could you send only the number? It should be in µM, unit omitted.

{"COMPOUND": "[2H]C([2H])([2H])C([2H])(Nc1nc(Nc2ccnc(C(F)(F)F)c2)nc(C2=C(F)C(O)CCC2)n1)C([2H])([2H])[2H] (stereo not shown) [Compound 54]", "UNIT SPEC": "µM", "IC50": 1.68}

Proceeding to the next compound to report its IC50.
Prompt: Specify measured IC50 for C[C@@H](Nc1nc(NC2CC2)nc(C2=C(F)C(O)CCC2)n1)C(F)(F)F (stereo partly shown) [Compound 224] .
Completion: 4.65

====

- TEST SYSTEM: IDH2-R140Q (Homo sapiens, UniProt P48735, R140Q)
- Sequence (P48735 40-452 R140Q): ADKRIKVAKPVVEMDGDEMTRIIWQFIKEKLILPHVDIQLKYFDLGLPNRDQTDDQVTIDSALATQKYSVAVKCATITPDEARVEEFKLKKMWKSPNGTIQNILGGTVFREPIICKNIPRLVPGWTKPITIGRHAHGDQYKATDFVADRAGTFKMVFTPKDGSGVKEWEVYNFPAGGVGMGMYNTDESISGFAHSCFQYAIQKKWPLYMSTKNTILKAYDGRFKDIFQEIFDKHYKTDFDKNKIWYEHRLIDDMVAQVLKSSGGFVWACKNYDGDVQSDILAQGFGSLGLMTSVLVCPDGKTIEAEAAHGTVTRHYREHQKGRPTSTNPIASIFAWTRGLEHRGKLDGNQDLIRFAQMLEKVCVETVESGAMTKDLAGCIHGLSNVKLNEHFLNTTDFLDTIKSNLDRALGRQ
- PROTOCOL: Fluorescent determination of IDH2-R140Q cell activity (2-HG in U87MGR140Q cells)
- EXPERIMENTAL SETUP: 72 hours incubation, read-out: IC50 (2-HG inhibition)
MEASUREMENT KIND: log10(IC50) (log10 of the value in nM)
Please be aware that the numbers have been log10-transformed from IC50 in nM.

Field: example entries. Status: answers known.
{"COMPOUND": "[2H]C1(O)CCCCC(c2nc(NC3CC(F)(F)C3)nc(N[C@H](C)C(F)(F)F)n2)=C1F (mixture of isomers)", "TEST SYSTEM": "IDH2-R140Q (Homo sapiens, UniProt P48735, R140Q)", "log10(IC50)": 2.29}
{"COMPOUND": "CC(C)Nc1nc(N[C@H](C)C(F)(F)F)nc(C2=C(F)C(O)C(F)(F)CC2)n1 (stereo partly shown) [Compound 244]", "TEST SYSTEM": "IDH2-R140Q (Homo sapiens, UniProt P48735, R140Q)", "log10(IC50)": 1.72}
{"COMPOUND": "[2H]C1(O)C(F)=C(c2nc(NC3CC3)nc(N[C@H](C)C(F)(F)F)n2)CCC1(F)F (mixture of isomers)", "TEST SYSTEM": "IDH2-R140Q (Homo sapiens, UniProt P48735, R140Q)", "log10(IC50)": 2.23}
{"COMPOUND": "C[C@@H](Nc1nc(NC(C)(C)C)nc(C2=CC(O)CCC2)n1)C(F)(F)F (mixture of isomers)", "TEST SYSTEM": "IDH2-R140Q (Homo sapiens, UniProt P48735, R140Q)", "log10(IC50)": 2.50}
{"COMPOUND": "CC[C@H](C)Nc1nc(N[C@H](C)C(F)(F)F)nc(C2=C(F)C(O)CCC2)n1 (mixture of isomers)", "TEST SYSTEM": "IDH2-R140Q (Homo sapiens, UniProt P48735, R140Q)", "log10(IC50)": 2.30}

Prompt: Annotate the compound C[C@@H](Nc1nc(N[C@H]2CCOC2)nc(C2=CC(O)CCC2)n1)C(F)(F)F (stereo partly shown) with its measured log10(IC50).
Completion: 2.73

Prompt: Specify log10(IC50) for CC(C)Nc1nc(N[C@H](C)C(F)(F)F)nc(C2=CCC(F)CC2)n1 (mixture of isomers) and stop.
Completion: 3.21

Prompt: Please give the documented log10(IC50) of C[C@@H](Nc1nc(N[C@H](C)C(F)(F)F)nc(C2=C(F)C(=O)C(F)CC2)n1)C(F)(F)F (mixture of isomers)
Completion: 2.90

Prompt: Report measured log10(IC50); entry is C[C@@H](Nc1nc(N[C@H](C)C(F)(F)F)nc(C2=C(F)C(O)CCC2)n1)C(F)(F)F (mixture of isomers) [Compound 2]
Completion: 2.14

Prompt: Please look at this compound and report its log10(IC50): CC(C)Nc1nc(N[C@H](C)C(F)(F)F)nc(C2=C(F)C(F)CCC2)n1 (mixture of isomers)
Completion: 2.77
